This collection of values is drawn from a melting point compilation (Tetko et al.; mined from patent text by program, amines drawn as free bases though some values may be those of a salt).

# melting point per record follows

Answered examples (5):
CCOc1ccc(-c2nc(-c3cccc(C#N)n3)cs2)cc1OCC ... 134 to 136 °C
N#Cc1nc(NC2CCCCC2)c2ncn(CCn3ccnc3)c2n1 ... 115 to 117 °C
Cc1cc(F)ccc1-c1cscc1-c1ccc(S(C)(=O)=O)cc1 ... 158 to 160 °C
CCOC(=O)N(c1ccc(C#N)cc1)c1c(NC(C)C(C)(C)C)c(=O)c1=O (configuration not stated) ... 158 to 159 °C
CCOC(=O)C(=Cc1ccc(-c2ccc(Cl)cc2)o1)C(=O)OCC ... 78 to 80 °C

Exercise: Report melting point for COc1cc2onc(-c3ccccc3F)c2cc1Cl please.
Solution: 165 to 166 °C

Exercise: Report melting point for Clc1ccc2nc(-c3ccccn3)nn2c1 please.
Solution: 118 to 119 °C

###

# melting point per record follows

CCCC(=O)c1cccc(NC(=O)C=C(C)OC)c1 ... 81 °C
CC(=O)N(CCN1CCOCC1)C(C)C1(c2ccc(Cl)c(Cl)c2)CCC1 (configuration not stated) ... 121 to 122 °C
COC(=O)c1ccc(N=C2NCCN2)c(C)c1 ... 193 to 194 °C
CCOC(=O)C1CC2=C(CO1)C(=O)c1cc3ccccc3c(OC(C)=O)c1C2=O (configuration not stated) ... 196 to 198 °C
CC(C)(C)C1Cc2cc(OCC(=O)O)c(Cl)c(Cl)c2C1=O (configuration not stated) ... 155 to 175 °C

Exercise: Report melting point for CC(C)Cc1ccc(-c2cc(C(=O)O)cc(-c3ccc(Cl)cc3)n2)cc1 please.
Solution: 220 to 221 °C

Exercise: Report melting point for O=C1C(Nc2ccccc2)=CC(=O)c2ncccc21 please.
Solution: 182 to 184 °C

###

measurement.type: melting point

Answered examples (5):
O=C1c2ccccc2C(=O)N1CCCC1c2ccccc2C=Cc2ccccc21 ... 126 to 132 °C
C#CCOc1ccc2cc(C(=O)OCC)c(=O)oc2c1 ... 252 °C
O=C1CCCCc2ccc(N3C[C@H](CO)OC3=O)cc21 ... 144 to 146 °C
CN1CCN(C2=Nc3ccccc3N=C(N3CCN(C)CC3)C2)CC1 ... 227 to 228 °C
CCCCc1ccc(NC(=O)CCC)c(N=C(NC(=O)OC)SC)c1 ... 116 °C

The record that follows has no melting point shown yet.
Exercise: Report melting point for O=C(O)C1(Cn2cnnn2)CCCC1 please.
Solution: 192 to 196 °C

###

# melting point per record follows

CCCc1nc2c(N)nc3ccccc3c2n1CCCCN(OC)C(=O)Nc1ccccc1 ... 164 to 166 °C

The record that follows has no melting point shown yet.
Exercise: Report melting point for CN1CC(c2ccc(S(C)(=O)=O)cc2)=C(c2ccc(Cl)cc2)C1=O please.
Solution: 129 to 131 °C

###

# melting point per record follows

Answered examples (3):
CCOCn1c(C(=O)c2cc(C)cc(C)c2)c(C(C)C)c(=O)[nH]c1=O ... 120 to 122 °C
COC(C)=CC(=O)Nc1cccc(C)c1 ... 106 °C
Nc1oc2ccc([N+](=O)[O-])cc2c(=O)c1C=O ... 228 to 229 °C

Exercise: Report melting point for COc1ccc2c(c1OC)CC(c1ccccc1)CC2C#N (configuration not stated) please.
Solution: 118 to 121 °C

Exercise: Report melting point for CCn1nc2c(N)nc3c(c2c1CC1(O)CCCCC1)CCCC3 please.
Solution: 232 to 234 °C

Exercise: Report melting point for O=C(O)c1cnc2cc(C3CCCCC3)ccc2c1O please.
Solution: 241 to 243 °C

Exercise: Report melting point for O=P(O)(O)C(F)(F)c1ccc(CN(c2ccc(Cl)c(Cl)c2)c2nnc(-c3cccc(Oc4cccc(-c5nnn[nH]5)c4)c3)s2)cc1Br please.
Solution: 232 to 235 °C

###

measurement.type: melting point

Cc1nc2c(N)nc3cc(-c4ccccc4)ccc3c2n1CCCS(C)(=O)=O ... 203 to 205 °C

Exercise: Report melting point for NC(=O)N(O)CC#Cc1cccc(Oc2ccccn2)c1 please.
Solution: 158 to 160 °C

Exercise: Report melting point for O=C(O)CCC(CNCC(CO)(NC(=O)OC1C2CC3CC(C2)CC1C3)C(=O)c1c[nH]c2ccccc12)c1ccccc1 (stereo not drawn) please.
Solution: 117 to 122 °C

###

# melting point per record follows

Answered examples (3):
CC(=O)C(C#N)c1cc(Cl)cc(Cl)c1Cl (stereo unspecified) ... 134 to 135 °C
COc1ccc2c(=O)c(C#N)c(N)oc2c1 ... 300 °C
FC(F)(F)c1cc(CO[C@H]2CCCN(Cc3cccnn3)[C@H]2c2ccccc2)cc(C(F)(F)F)c1 ... 111 to 113 °C

Exercise: Report melting point for c1ccc(CNc2nc(-c3cccs3)nc3ccccc23)cc1 please.
Solution: 158 to 163 °C

Exercise: Report melting point for CCSc1nsc(NC(=O)Oc2ccccc2)c1C#N please.
Solution: 223 to 225 °C

Exercise: Report melting point for NS(=O)(=O)c1ccc(-c2c(-c3ccccc3)noc2COCCO)cc1 please.
Solution: 110 to 121 °C

Exercise: Report melting point for Cc1nc(C#N)nc(NCC(F)(F)F)c1I please.
Solution: 103 to 105 °C

###

# melting point per record follows
Write down the numeric answer in °C and omit the unit.

COc1ccc(CNc2ccc(C#N)cc2)cc1OC ... 150

The record that follows has no melting point shown yet.
Exercise: Report melting point for CC(C)CCCC(=O)OC1c2ccccc2C(=O)N1c1ccc2ccc(Br)nc2n1 (stereo not given) please.
Solution: 136

###

# melting point per record follows

CC(=O)Nc1ccc2c(c1)CC1(OC1c1ccccc1)C2=O (stereo not drawn) ... 195 to 197 °C
COc1ccccc1-n1c(-c2sc(Nc3ccccc3)nc2-c2ccccc2)nc2ccccc2c1=O ... 224 to 225 °C
CCCCCN1Cc2cc(C)ccc2CCC1=O ... 95 to 97 °C
COc1nc2ccc(Br)cc2c2c1C(C)(OCC(O)Cn1ccc(-c3ccc(C(F)(F)F)cc3)n1)c1ccccc1-2 (stereo not drawn) ... 65 to 67 °C

Exercise: Report melting point for COc1ccc(CN(C)CCCCc2ccc(NC(=O)c3cccc4c(=O)cc(-c5ccccc5)[nH]c34)cc2)cc1OC please.
Solution: 171 °C

Exercise: Report melting point for Cc1n[nH]c(=O)cc1-c1ccc(OC2CCN(C(=O)OC(C)(C)C)CC2)cc1 please.
Solution: 184 to 186 °C

Exercise: Report melting point for COc1cc2nc(N3CCN(c4ccnc(N(C)C5CCCC5)n4)CC3)nc(N)c2cc1OC please.
Solution: 333 to 334 °C

Exercise: Report melting point for CSc1ccc(C2=C(c3cccc(F)c3)C(=O)C(C)(C)O2)cc1 please.
Solution: 106 °C

###

measurement.type: melting point

Answered examples (4):
COC(=O)OC(Cc1ccc(OCCc2nc(-c3ccccc3)oc2C)cc1)C(N)=O (configuration not stated) ... 171 to 174 °C
CCC(=O)C(CCCCc1ccc(O)cc1)C(=O)CC ... 67 to 69 °C
Cc1cc(Oc2ccc(N)cc2C(F)(F)F)n[nH]1 ... 143 to 145 °C
COc1cc2cc3c(Nc4ccc(Sc5nccn5C)c(Cl)c4)c(C#N)cnc3cc2cc1OCCN1CCOCC1 ... > 300 °C

Exercise: Report melting point for O=c1[nH]c2cc(S(=O)c3cccc4cnccc34)c([N+](=O)[O-])cc2s1 (configuration not stated) please.
Solution: > 270 °C

Exercise: Report melting point for Cc1ccc(-c2[nH]nc(COCCCO)c2-c2ccc(S(N)(=O)=O)cc2)cc1 please.
Solution: 85 to 86 °C

Exercise: Report melting point for CC(=CC(=O)O)c1ccc(-c2ccc(F)cc2)cc1 please.
Solution: 58 to 60 °C

###

measurement.type: melting point

Answered examples (5):
Cc1ccc([N+](=O)[O-])cc1S(=O)(=O)n1ccnc1C ... 159 to 161 °C
O=C(O)C1CCN(S(=O)(=O)c2ccc(Br)cc2)CC1 ... 225 to 227 °C
NS(=O)(=O)C(F)(F)C(F)(F)C(F)(F)C(F)(F)C(F)(F)C(F)(F)F ... 165 to 168 °C
Cc1noc2cc(F)c(-n3c(=O)cc(C(F)(F)F)n(C)c3=O)cc12 ... 158 to 159 °C
COC(=O)CCc1cc2cc(Br)ccc2n1S(=O)(=O)c1ccccc1 ... 109 to 113 °C

Exercise: Report melting point for O=C(NCc1ccccn1)Nc1cc(N2CC(c3ccc(F)cc3)CC2=O)ccn1 (stereo not drawn) please.
Solution: 153 to 155 °C

Exercise: Report melting point for COC(=O)c1c(Cl)ccc2[nH]c(Sc3cccc4c(S(C)(=O)=O)c[nH]c34)nc12 please.
Solution: 284 to 286 °C

Exercise: Report melting point for O=C(NCC1Cc2cccc(-c3ccc(C(F)(F)F)cc3)c2O1)OCc1ccccc1 (stereo not drawn) please.
Solution: 100 to 102 °C
